- Test system: EfPiwi piRISC loaded with L1MC piRNA (26 nt)
- experimental_protocol: pre-steady-state target cleavage rate (min^-1); auxiliary factor: 500 nM Ephydatia muelleri Gtsf1; guide: L1MC piRNA 5'p-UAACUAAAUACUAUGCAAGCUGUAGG; higher = faster piRNA-guided slicing of the target
Each item that follows carries a reported pre-steady-state target cleavage rate.
value_type: pre-steady-state target cleavage rate

                          seq_text  reported
0   UCCUCCUAGAGCUUGCAUAGUAUUUAGAUA    0.0043
1   UCCUGGAUCAGCUUGCAAAGUUUUUAGUUA   0.00491
2   UCCUGGAUGUGCUUGCAAAGUAUUUAGUUA   0.00905
3   UCCUGGAUCAGCUUGCAUAGUUAAUAGUUA   0.00344
4   UCCUCCAACAGCUUGCAAAGUAUUUAGUUA    0.0132
5  UCCUGGAUGUCCUUGCAUAGUAUUUAAGUUA    0.0217
6   UCCUGCUACAGCUAGCAUACUAUUUAGUUA    0.0063

###

- Tested on: MILI (PIWIL2) piRISC loaded with L1MC piRNA (26 nt);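 further: 1 nM active piRISC with 0.1 nM target library at 33 °C single turnover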
- experimental_protocol: pre-steady-state target cleavage rate (min^-1); guide: L1MC piRNA 5'p-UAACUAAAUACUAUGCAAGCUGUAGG; higher = faster piRNA-guided slicing of the target
- assay_setup: auxiliary factor: 500 nM mouse GTSF1
Parameter threshold = 0.08. Response is condition met when pre-steady-state target cleavage rate meets or exceeds it, else condition not met.

>>> print(df.to_string())
                           seq_text                cat
 0   UCCUGGAACAGCAUGCAUAGUAUUAAGUUA      condition met
 1   UCCUGGAUGUCCUUGCAAAGUAUUUAGAUA  condition not met
 2   UCCUGCAACAGCAUGCAUAGUAUUUAGUUA      condition met
 3   UCCUGGUACAGCUUGCAUUGUUUUUAGUUA  condition not met
 4   UCCUGCUACAGGAAGCAUAGUAUUUAGUAA      condition met
 5   UCCUGGAACAGCUUGCAUUGUUUUUAGUUA  condition not met
 6   UCCUGGAUGUGCAUGCAUAGUAUUUAGAUA      condition met
 7   UCCUGGAUGAGGUAGCAUAGUAUUUAGUUA  condition not met
 8   UCCUCCUACAGCUUGCAAUGUAUUUAGUAA      condition met
 9   UCCUGGAUCAGCAUGCAAAGUAUUUAGUUA      condition met
10   UCCUGGAUCAGCUUGCAUAGUAUUAAGAAA  condition not met
11   UCCUGGAUGAGCAUGCAUAGUUUUUAGUUA  condition not met
12   UCCUGGUACAGCUUGCAUAGUAUUUUGUAA  condition not met
13   UCCUGGAUGUCGUUGCUUAGUAAUUAGUUA  condition not met
14   UCCUCCUACAGGUUGCAAAGUAUUUAGUUA      condition met
15   UCCUGCAACAGCUUGCAUAGUAUUUUGUUA      condition met
16   UCCUGCUAGAGCUUGCUUAGUAUUUAGUUA      condition met
17   UCCUGGUAGAGCUUGCAUAGUAUUUAGAUA      condition met
18   UCCUCCUACAGCUUGCAUUGUAUUUAGUAA      condition met
19  UCCUCCUACAGCUUCGCAUAGUAUUUAGUUA      condition met
20  UCCUGGAUCUAGCUUGCAUAGUAUUUAGUUA      condition met
21   UCCUGGAUCAGCUUGCUUUGUAUUUAGUUA      condition met
22   UCCUGGAUGUCCUAGCAUAGUAUUUACUUA  condition not met
23   UCCUCGAACAGCUUGCAUAGUAUUUACAAA      condition met
24   UCCUGCUACAGCUUGCAAUGUAUUUAGUUA      condition met
25   UCCUGGAACACGAUGCAUAGUAUUUUCAAA  condition not met
26  UCCUGCUACAGCUUCGCAUAGUAUUUAGUUA      condition met

###

- System: MILI (PIWIL2) piRISC loaded with L1MC piRNA (26 nt);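 further: 1 nM active piRISC with 0.1 nM target library at 33 °C single turnover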
- experimental_protocol: pre-steady-state target cleavage rate (min^-1); guide: L1MC piRNA 5'p-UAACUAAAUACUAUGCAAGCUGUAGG; MIWI and MILI are mouse PIWI proteins and EfPiwi is from a freshwater sponge; tags in brackets are library labels; higher = faster piRNA-guided slicing of the target
- assay_setup: auxiliary factor: 500 nM mouse GTSF1
Quick list: pre-steady-state target cleavage rate per entry.
value_type: pre-steady-state target cleavage rate

In [3]: df
Out[3]:
                           seq_text                            assayed_target  reported
 0   UCCUGGAACAGCUUGCAUAGUAUUAUCUAA  MILI (PIWIL2) piRISC loaded with L1MC piRNA (26 nt)    0.0368
 1   UCCUCCUACAGCAUGCAUAGUUUUUAGUUA  MILI (PIWIL2) piRISC loaded with L1MC piRNA (26 nt)    0.0554
 2   UCCUGGAUGUCCUUGCAUACUAUUUUGUUA  MILI (PIWIL2) piRISC loaded with L1MC piRNA (26 nt)   0.00525
 3   UCCUGGAUGAGCUACGAUAGUAUUUAGUUA  MILI (PIWIL2) piRISC loaded with L1MC piRNA (26 nt)   0.00662
 4   UCCUGGUAGAGCUUCCAUAGUAUUUAGUUA  MILI (PIWIL2) piRISC loaded with L1MC piRNA (26 nt)    0.0967
 5   UCCUGGUACAUCUUGCAUAGUAUUUAGUUA  MILI (PIWIL2) piRISC loaded with L1MC piRNA (26 nt)     0.237
 6   UCCUGGAUCAGCUUGCAUAGAUUUUAGAAA  MILI (PIWIL2) piRISC loaded with L1MC piRNA (26 nt)   0.00651
 7   UCCUGGAUGAGCUUGCAUAAUAUUUAGUUA  MILI (PIWIL2) piRISC loaded with L1MC piRNA (26 nt)     0.266
 8  UCCUCCAUACAGCUUGCAUAGUAUUUAGUUA  MILI (PIWIL2) piRISC loaded with L1MC piRNA (26 nt)     0.171
 9   UCCUGGAUGAGCUUGCAAAGUAUUUUGUUA  MILI (PIWIL2) piRISC loaded with L1MC piRNA (26 nt)    0.0703
10   UCCUCCAUGAGCUUGCAUAGUAUUUACAAA  MILI (PIWIL2) piRISC loaded with L1MC piRNA (26 nt)    0.0266
11   UCCUCCUACUGGUUGCAUAGUAUUUAGUUA  MILI (PIWIL2) piRISC loaded with L1MC piRNA (26 nt)     0.226
12   UCCUGGAUCAGCUUCCAUAGAAUUUAGUUA  MILI (PIWIL2) piRISC loaded with L1MC piRNA (26 nt)    0.0103
13   UCCUGGAUGUGCUAGCAUAGUAUUUAGAUA  MILI (PIWIL2) piRISC loaded with L1MC piRNA (26 nt)    0.0954
14   UCCUGGAUGUGCUUGCAUAGAUUUUAGUUA  MILI (PIWIL2) piRISC loaded with L1MC piRNA (26 nt)   0.00729
15   UCCUGGAUCAGCUUGCAUAGUAUAAUGUAA  MILI (PIWIL2) piRISC loaded with L1MC piRNA (26 nt)    0.0214
16   UCCUGGUACAGCUUGCAUAGAAUUAAGUUA  MILI (PIWIL2) piRISC loaded with L1MC piRNA (26 nt)    0.0989
17   UCCUGGAUCACGUUGCAUAGUAUUUAGAAA  MILI (PIWIL2) piRISC loaded with L1MC piRNA (26 nt)     0.128
18   UCCUGGAUGACCUUGCAAAGUAUUUAGUUA  MILI (PIWIL2) piRISC loaded with L1MC piRNA (26 nt)    0.0397
19   UCCUGGAACAGCUUGCAUAGUAUUUAGAUA  MILI (PIWIL2) piRISC loaded with L1MC piRNA (26 nt)     0.137
20   UCCUGGAUGUGCUUGCAUACUAAUUAGUUA  MILI (PIWIL2) piRISC loaded with L1MC piRNA (26 nt)   0.00944
21  UCCUGGAUGUCGAUGACAUAGUAUUUAGUUA  MILI (PIWIL2) piRISC loaded with L1MC piRNA (26 nt)     0.015
22   UCCUGGAUGUGCUUGCAUAGUAUUUUCUUA  MILI (PIWIL2) piRISC loaded with L1MC piRNA (26 nt)   0.00861
23   UCCUGGAUCAGCUUGCAUAGUUUUUAGAAA  MILI (PIWIL2) piRISC loaded with L1MC piRNA (26 nt)    0.0202
24  UCCUCCUACAGCUUGCAUAGUGAUUUAGUUA  MILI (PIWIL2) piRISC loaded with L1MC piRNA (26 nt)    0.0192
25   UCCUGGAUGUGCUAGCUUAGUAUUUAGUUA  MILI (PIWIL2) piRISC loaded with L1MC piRNA (26 nt)    0.0596
26   UCCUGGUACGGCUUGCAUAGUAUUUAGUUA  MILI (PIWIL2) piRISC loaded with L1MC piRNA (26 nt)     0.195
27  UCCUCCUACAGCUUGCAUAGUAUUUAAGUUA  MILI (PIWIL2) piRISC loaded with L1MC piRNA (26 nt)     0.214
28   UCCUGCUACAGCAUGCAUAGUAUUUACAAA  MILI (PIWIL2) piRISC loaded with L1MC piRNA (26 nt)     0.146
29   UCCUGGAUGACCUUGCAUAGUAAUUAGUUA  MILI (PIWIL2) piRISC loaded with L1MC piRNA (26 nt)     0.131
30   UCCUCCUACAGCUACCAUAGUAUUUAGUAA  MILI (PIWIL2) piRISC loaded with L1MC piRNA (26 nt)     0.141
31   UCCUGGUACAGCUUGCAUAGUAUAUUGUUA  MILI (PIWIL2) piRISC loaded with L1MC piRNA (26 nt)     0.146
32   UCCUCCUACAGCUUGCAGAGUAUUUAGUUA  MILI (PIWIL2) piRISC loaded with L1MC piRNA (26 nt)     0.218
33  UCCUGGAUGAGCUUGCAUAGUAUUUAGGUUA  MILI (PIWIL2) piRISC loaded with L1MC piRNA (26 nt)     0.195
34   UCCUGGAACAGCUUGCAUAGUAUAAACAAA  MILI (PIWIL2) piRISC loaded with L1MC piRNA (26 nt)    0.0505
35    UCCUGCUCAGCUUGCAUAGUAUUUAGUUA  MILI (PIWIL2) piRISC loaded with L1MC piRNA (26 nt)     0.278
36   UCCUGCUACAGCUUGCAUAGUAUUUUCUUA  MILI (PIWIL2) piRISC loaded with L1MC piRNA (26 nt)    0.0484
37   UCCUGGAUGUGCUUGGUUAGUAUUUAGAAA  MILI (PIWIL2) piRISC loaded with L1MC piRNA (26 nt)   0.00692
38   UCCUCCUACACGAUGCAUAGUAUUUAGAAA  MILI (PIWIL2) piRISC loaded with L1MC piRNA (26 nt)     0.102
39   UCCUGGAUGUCGAUGCAUAGUAUUUAGUGA  MILI (PIWIL2) piRISC loaded with L1MC piRNA (26 nt)    0.0843
40   UCCUGGAUGUGCAUGCAUAGUUUUUAGUUA  MILI (PIWIL2) piRISC loaded with L1MC piRNA (26 nt)      0.01
41   UCCUGGUACUGCUUGCAUAGUAUUUAGAUA  MILI (PIWIL2) piRISC loaded with L1MC piRNA (26 nt)    0.0302
42   UCCUGGUACAGCUUGCAAAGUAUUUAGUAA  MILI (PIWIL2) piRISC loaded with L1MC piRNA (26 nt)    0.0794
43   UCCUGCUACAGCUACCAUAGUAUUUAGUUA  MILI (PIWIL2) piRISC loaded with L1MC piRNA (26 nt)     0.233
44   UCCUGGAAGAGCUUGCAAAGUAUUUAGUUA  MILI (PIWIL2) piRISC loaded with L1MC piRNA (26 nt)     0.075
45   UCCUGGAUGUCCUUGCAAUGUAUUUAGUUA  MILI (PIWIL2) piRISC loaded with L1MC piRNA (26 nt)    0.0105
46   UCCUGGAACAGCUUGCAUAGUAUUUAGUAA  MILI (PIWIL2) piRISC loaded with L1MC piRNA (26 nt)     0.247
47   UCCUGCAACAGCUUGCAUAGUAUUUAGAUA  MILI (PIWIL2) piRISC loaded with L1MC piRNA (26 nt)     0.125
48   UCCUGGAUGAGCUUGCAUAUUAUUUAGUUA  MILI (PIWIL2) piRISC loaded with L1MC piRNA (26 nt)    0.0637
49  UCCUGGAUGAGCUUGCAUAGUAUUUCAGUUA  MILI (PIWIL2) piRISC loaded with L1MC piRNA (26 nt)     0.207
50   UCCUGGUACAGCUUGUAUAGUAUUUAGUUA  MILI (PIWIL2) piRISC loaded with L1MC piRNA (26 nt)     0.242
51   UCCUGGAACAGCUUGAAUAGUAUUUAGUUA  MILI (PIWIL2) piRISC loaded with L1MC piRNA (26 nt)     0.243
52   UCCUGGAUGUGCAUGCAUAGUAUUUAGAAA  MILI (PIWIL2) piRISC loaded with L1MC piRNA (26 nt)    0.0733
53   UCCUGGAUGUCCCUGCAUAGUAUUUAGUUA  MILI (PIWIL2) piRISC loaded with L1MC piRNA (26 nt)     0.085
54  UCCUCCUACAGACUUGCAUAGUAUUUAGUUA  MILI (PIWIL2) piRISC loaded with L1MC piRNA (26 nt)     0.253
